# Measured On: Platelet-activating factor acetylhydrolase IB subunit alpha2 (Homo sapiens)
# Protocol: inhibition of human PAFAH1B2 catalytic subunit – biochemical, fluorescence polarization, FP-rhodamine probe, triplicate, confirmation (AID 493034);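 further: inhibitors lower polarization by leaving the probe unbound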
# Experimental Context: recombinant PAFAH1B2, FP-rhodamine probe fluorescence polarization; at 3.39 µM
In all, about 2,400 compounds went through this assay and about 2,200 (92%) were called active.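 How the source made its calls: active means mean inhibition over triplicate runs exceeds the cutoff derived for the earlier primary screen (cut at about 25% in these data); inactive means the rest.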 So high a share suggests a set chosen from earlier hits. The list shows a part of the results.
Classes used: active, inactive

Compound | Category Label
NC1=NC(=O)/C(=C/c2cn(CCC(=O)O)nc2-c2ccc(Cl)cc2)S1 | active
Cc1ccc(NS(=O)(=O)c2cc([N+](=O)[O-])ccc2NNC(=S)Nc2cccc(Cl)c2)c(C)c1 | active
O=C(/C=C/c1ccc(O)c(O)c1)OCCc1ccccc1 | inactive
CC(NCc1ccc(OCc2ccc(Cl)cc2)cc1)C(O)c1ccccc1 (stereo not given) | active
Cc1ccc(S(=O)(=O)N2CCN(C(=S)NCCc3ccccc3)CC2)cc1 | active
O=C(Nc1ccccc1Cl)Oc1ccc(-c2ccccc2)cc1 | active
O=C(NCCSc1ncc(-c2ccc(F)cc2)[nH]1)c1ccc2c(c1)OCO2 | inactive
O=C(Oc1ccc(-c2ccccc2)cc1)c1ccco1 | inactive
NC1=NC(=O)/C(=C/c2cn(CCC(=O)O)nc2-c2ccc(F)cc2)S1 | active
O=C(Oc1ccc(OC(=O)c2ccco2)c(S(=O)(=O)c2ccc(Br)cc2)c1)c1ccco1 | active
